Data provenance is patent US20100311107A1.

test system: E. coli MG1655; type: cell-based, Escherichia coli; set-up: unit not given here; settings: Table 11, MHB medium
Listing of entries alongside the reported Minimal inhibitory concentrations (MIC90) MG1655.
measurementLabel: Minimal inhibitory concentrations (MIC90) MG1655

molecule	numericResult
NC[C@H]1O[C@H](O[C@H]2[C@H](O)[C@@H](O[C@H]3O[C@H](CO)[C@@H](O)[C@H](N)[C@H]3O)[C@H](N)C[C@@H]2N)[C@H](N)C[C@@H]1O [Tobramycin]	0.4
CC[C@H]1OC(=O)[C@H](C)[C@@H](O[C@H]2C[C@@](C)(OC)[C@@H](O)[C@H](C)O2)[C@H](C)[C@@H](O[C@@H]2O[C@H](C)C[C@H](N(C)C)[C@H]2O)[C@](C)(O)C[C@@H](C)C(=O)[C@H](C)[C@@H](O)[C@]1(C)O [Erythromycin]	25
CCn1cc(C(=O)O)c(=O)c2ccc(C)nc21 [Nalidixic Acid]	6.3
COc1cccc2c1C(=O)c1c(O)c3c(c(O)c1C2=O)C[C@@](O)(C(C)=O)C[C@@H]3O[C@H]1C[C@H](N)[C@H](O)[C@H](C)O1 [Daunorubicin]	200
[H]/N=C(/N)N[C@H]1[C@H](O)[C@@H](O)[C@H](O[C@@H]2O[C@@H](C)[C@](O)(C=O)[C@H]2O[C@@H]2O[C@@H](CO)[C@H](O)[C@@H](O)[C@@H]2NC)[C@@H](N/C(N)=N\[H])[C@@H]1O [Streptomycin]	3.2

###

Listing of entries alongside the reported Minimal inhibitory concentrations (MIC90) MG1655.
test system: E. coli MG1655; assay type: cell-based, Escherichia coli; design: unit not given here; settings: Table 11, MHB medium
measurementLabel: Minimal inhibitory concentrations (MIC90) MG1655

smilesRepr	systemTested	numericResult
C[C@H]1[C@H](NC(=O)/C(=N\OC(C)(C)C(=O)O)c2csc(N)n2)C(=O)N1S(=O)(=O)O	E. coli MG1655	0.1
CCN[C@@H]1C[C@H](N)[C@@H](O[C@H]2OC(CN)=CC[C@H]2N)[C@H](O)[C@H]1O[C@H]1OC[C@](C)(O)[C@H](NC)[C@H]1O	E. coli MG1655	1.6
O=C(N[C@H](CO)[C@H](O)c1ccc([N+](=O)[O-])cc1)C(Cl)Cl	E. coli MG1655	3.2

###

Tested on: E. coli MG1655
Assay type: cell-based, Escherichia coli
Design: unit not given here
Conditions: Table 7, MHB medium
Protocol: The screening strain, DR1234, was established after all desired drug-resistant genes listed in Table 5 had been delivered into the parent E. coli strain, MG1655, by methods described above. Its level of drug resistance was analyzed by the standard minimum inhibitory concentration (MIC) assay in MHB liquid medium (Chantot, et al., 1986, “Antibacterial activity of roxithromycin: a laboratory evaluation,” J. Antibiot, 39(5):660-8) and the result was summarized in Table 7. […]
measurementLabel: Minimal inhibitory concentrations (MIC90) MG1655

compound	systemTested	result
CN(C)[C@@H]1C(O)=C(C(N)=O)C(=O)[C@@]2(O)C(O)=C3C(=O)c4c(O)cccc4[C@@](C)(O)[C@H]3C[C@@H]12	E. coli MG1655	0.4-3.2
CN[C@@H]1[C@H](O)[C@H](NC)[C@H]2O[C@@]3(O)C(=O)C[C@@H](C)O[C@H]3O[C@@H]2[C@H]1O	E. coli MG1655	6.3-12.5
CN[C@@H]1[C@@H](O[C@H]2O[C@H](CO)[C@@H](N)[C@H](O)[C@H]2O)OC2C[C@@H](N)[C@@H](O[C@H]3[C@H](O)[C@@H](O)[C@H](N)C[C@@H]3N)OC2[C@@H]1O (stereo partly drawn)	E. coli MG1655	3.2-6.3
